System: PPARg:RXRa 90nM:30nM, anti-RXR (NR concentration 90 nM, RXRa partner concentration 30 nM)
experimentalDetails: PBM binding z-score (relative to random genomic background probes); higher = stronger binding; sequences stand for … in GC…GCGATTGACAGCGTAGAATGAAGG
// values below are reported PBM binding z-score

INSERT INTO measurements (macromoleculesequence, testreadout, testresult) VALUES
  ('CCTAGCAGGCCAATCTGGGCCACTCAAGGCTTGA', 'PBM binding z-score', -1.08);

Consider the record given below.
Tell me measured PBM binding z-score for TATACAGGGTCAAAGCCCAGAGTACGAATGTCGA please.
4.51

Value source: the supplement of paper PMC6555819
